Kindly supply the reported normalized growth values for the records listed here.
procedure_text: chemical genetic growth profiling, strain panel (AID 1159580);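 also: tested at 20 µM; growth read once vehicle control cultures reached saturation at 30 °C; 1 = growth at the plate median or of vehicle wells; lower values mean less growth of the strain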
assay_conditions: S. cerevisiae deletion strains, growth OD, locus YOR144C, strain elg1, stronger effect = lower value
Among all 5,500 compounds or so, about 2,000 (36%) were called active. Roughly 18% stayed inconclusive and do not appear here. Some of the results follow. Where a SMILES comes first, the peptide text is derived from it. [ ]: non-standard residue; d: D form. Orn = NCCC[CH](N)C(=O)O
One number for each entry.

Consider the following items and state reported normalized growth for each.
1. CC(=O)OCC(=O)[C@@]1(O)CCC2C3CCC4=CC(=O)CC[C@]4(C)C3[C@@H](O)C[C@@]21C (stereo not given in full)
2. COc1ccc2c(=O)ccoc2c1
3. CC(=O)NO
4. CCc1cccc2c3c([nH]c12)C(CC)(CC(=O)O)OCC3 (stereo not given)
5. CC(C)CC1NC(=O)C(CCCN)NC(=O)C(C(C)C)NC(=O)C2CCCN2C(=O)C(Cc2ccccc2)NC(=O)C(CC(C)C)NC(=O)C(CCCN)NC(=O)C(C(C)C)NC(=O)C2CCCN2C(=O)C(Cc2ccccc2)NC1=O (stereo not given) (cyclo(FPV[Orn]LFPV[Orn]L); configuration not given here)

Solution:
0.997
1
0.996
1
1
